EXPERIMENTAL SYSTEM: human GPBAR1 receptor (Homo sapiens, UniProt Q8TDU6)
PROTOCOL: functional cAMP assay in CHO-dhfr(minus) cells expressing human GPBAR1 receptors
CONDITION NOTES: TR-FRET, 30 min at 30° C.
// values below are reported pEC50
Notebook: values listed as pEC50 are -log10 of the concentration (mol/L).

Please review the following examples before continuing.
Cc1ccccc1C(C/C(=N\O)c1ccnnc1)c1ccc(-c2ccc(C(=O)O)cc2)cc1 (centres unmarked) ... 5.81
Cc1ccccc1[C@H](C/C(=N\O)c1ccc(=O)n(C)n1)c1ccc(-c2ccc(C(=O)O)cc2)cc1 ... 7.21
Cc1ccccc1[C@@H](C/C(=N\O)c1ccc(=O)[nH]n1)c1ccc(Br)cc1 ... 6.19
Cc1ccccc1[C@@H](C/C(=N\O)c1ccn[nH]c1=O)c1ccc(Br)cc1 ... 6.83
Cc1ccccc1[C@H](C/C(=N\O)c1ccc(=O)n(C)n1)c1ccc(C2CCN(S(C)(=O)=O)CC2)cc1 ... 7.48
Cc1ccccc1[C@H](C/C(=N\O)c1ccnnc1)c1ccc(Br)cc1 ... 7.10

Query: human GPBAR1 receptor (Homo sapiens, UniProt Q8TDU6) / pEC50 / Cc1ccccc1[C@H](C/C(=N\O)c1ccnn(C)c1=O)c1ccc(C2CCN(S(C)(=O)=O)CC2)cc1 : value?
Reply: 6.75

Query: Lookup: pEC50 / human GPBAR1 receptor (Homo sapiens, UniProt Q8TDU6) / Cc1ccccc1[C@H](C/C(=N\O)c1ccn[nH]c1=O)c1ccc(C2CCN(S(C)(=O)=O)CC2)cc1
Reply: 6.28

Query: Under human GPBAR1 receptor (Homo sapiens, UniProt Q8TDU6): pEC50 value of Cc1ccccc1[C@@H](C/C(=N\O)c1ccnn(C)c1=O)c1ccc(Br)cc1 ?
Reply: 7.05

Query: // fetch human GPBAR1 receptor (Homo sapiens, UniProt Q8TDU6) pEC50 for Cc1ccccc1[C@H](C/C(=N\O)c1ccc(=O)n(C)n1)c1ccc(Br)cc1
Reply: 8.22

* * *

Reported EC50 values for the following compounds.
EXPERIMENTAL SYSTEM: human GPBAR1 receptor (Homo sapiens)
Sequence (Q8TDU6 1-330): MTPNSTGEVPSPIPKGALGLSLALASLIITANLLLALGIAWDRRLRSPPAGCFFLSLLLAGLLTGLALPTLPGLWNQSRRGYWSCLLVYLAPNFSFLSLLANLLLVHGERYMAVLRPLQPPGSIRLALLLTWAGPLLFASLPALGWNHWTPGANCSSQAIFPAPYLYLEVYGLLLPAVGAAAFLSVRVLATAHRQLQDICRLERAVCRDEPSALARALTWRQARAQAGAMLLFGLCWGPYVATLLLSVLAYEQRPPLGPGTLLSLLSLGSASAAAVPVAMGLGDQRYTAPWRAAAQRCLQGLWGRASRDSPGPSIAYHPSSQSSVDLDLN
PROTOCOL: functional cAMP assay in CHO-dhfr(minus) cells expressing human GPBAR1 receptors
CONDITION NOTES: TR-FRET, 30 min at 30° C.
I only need the number, in nM, no unit after it.

Please review the following examples before continuing.
Cc1ccccc1C(C/C(=N\O)c1ccnnc1)c1ccc(C2CCN(S(C)(=O)=O)CC2)cc1 (stereo not shown) ... 956
COc1nnccc1/C(C[C@H](c1ccc(C2CCN(S(C)(=O)=O)CC2)cc1)c1ccccc1C)=N/O ... 52
COc1nnccc1/C(C[C@@H](c1ccc(Br)cc1)c1ccccc1C)=N/O ... 31

Switching to the query record.
Query: May I ask what EC50 has been recorded for Cc1ccccc1[C@H](C/C(=N\O)c1ccc(=O)n(C)n1)c1ccc(S(C)(=O)=O)cc1 ?
Reply: 60
